- measured_on: Histidine--tRNA ligase (Leishmania infantum) (UniProt A4I591)
- Sequence (whole entry): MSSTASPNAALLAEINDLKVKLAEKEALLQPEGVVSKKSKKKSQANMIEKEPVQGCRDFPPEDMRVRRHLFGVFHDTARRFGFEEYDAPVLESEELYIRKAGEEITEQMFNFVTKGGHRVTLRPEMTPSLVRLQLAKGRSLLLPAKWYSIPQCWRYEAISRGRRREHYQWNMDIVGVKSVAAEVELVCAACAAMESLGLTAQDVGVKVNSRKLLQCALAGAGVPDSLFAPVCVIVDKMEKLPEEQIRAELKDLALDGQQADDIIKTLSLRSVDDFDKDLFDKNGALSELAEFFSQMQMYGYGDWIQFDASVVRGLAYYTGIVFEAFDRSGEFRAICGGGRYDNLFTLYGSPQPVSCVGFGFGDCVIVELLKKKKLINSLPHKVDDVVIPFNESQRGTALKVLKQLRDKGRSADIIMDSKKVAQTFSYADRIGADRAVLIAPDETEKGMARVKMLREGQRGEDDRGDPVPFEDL
- test_details: Leishmania infantum Histidine tRNA synthetase (LdHisRS)
- Assay type: functional
- Parameters: scale not given: in the data most compounds retested in dose-response had high values
- details: 30 µM
The campaign covered roughly 69,000 compounds. About 420 (0.61%) showed an effect of 50% or more. The entries come from a sample that favours strong results as a whole.
Each entry below carries its recorded Percent Effect.

molecule | measured_on | Percent Effect / %
Cn1cccc1C(=O)N1CC[C@@H]2[C@@H]1CC(=O)N2CC1CCOCC1 | Histidine--tRNA ligase (Leishmania infantum) (UniProt A4I591) | 19.3
O=C(C1CCOCC1)N1C[C@H]2CCC[C@@]2(COc2ccccn2)C1 | Histidine--tRNA ligase (Leishmania infantum) (UniProt A4I591) | 0
Cc1csc(CN(C)C(C)C(=O)N2CCc3ccccc3C2)n1 (configuration not stated) | Histidine--tRNA ligase (Leishmania infantum) (UniProt A4I591) | 55.8
CCc1cnc(CN(C)C(C)C(=O)N2CCc3ccccc3C2)s1 (configuration not stated) | Histidine--tRNA ligase (Leishmania infantum) (UniProt A4I591) | 9.09
O=C1CC[C@H]2CN(C3CCOCC3)CC[C@H]2N1CCC1=CCCCC1 | Histidine--tRNA ligase (Leishmania infantum) (UniProt A4I591) | 15.6
Cc1ccc(C)c(CC(=O)Nc2cccc(C(=O)N(C)C)n2)c1 | Histidine--tRNA ligase (Leishmania infantum) (UniProt A4I591) | 17.1
Cc1cc(C(=O)N2C[C@@H]3CCCO[C@@H]3[C@H](N(C)C(C)C)C2)c(C)[nH]1 | Histidine--tRNA ligase (Leishmania infantum) (UniProt A4I591) | 11.5
CC(C(=O)N1CCc2ccccc2C1)N(C)Cc1cscn1 (configuration not stated) | Histidine--tRNA ligase (Leishmania infantum) (UniProt A4I591) | 3.9
CCCOc1ccc(C(=O)N2CC[C@H]3CC[C@@H](C2)N3)cc1Cl | Histidine--tRNA ligase (Leishmania infantum) (UniProt A4I591) | 9.17
c1cnc(N2C[C@H]3CCN(CCN4CCCC4)C[C@H]3C2)cn1 | Histidine--tRNA ligase (Leishmania infantum) (UniProt A4I591) | 25.7
CN(C)C(=O)c1cccc(NC(=O)Cc2cc(F)ccc2F)n1 | Histidine--tRNA ligase (Leishmania infantum) (UniProt A4I591) | 19.7
CN1C(=O)[C@H]2CC[C@@H]1CN(C(=O)Nc1ccccc1C(F)(F)F)C2 | Histidine--tRNA ligase (Leishmania infantum) (UniProt A4I591) | 7.84
CC(=O)N1[C@H](Cn2cncn2)C[C@@H]2CN(CC3CC3)CC[C@@H]21 | Histidine--tRNA ligase (Leishmania infantum) (UniProt A4I591) | 11.1
COc1cc(CC(=O)Nc2cccc(C(=O)N(C)C)n2)ccc1C | Histidine--tRNA ligase (Leishmania infantum) (UniProt A4I591) | 54
O=C1N(c2ccccc2)C[C@H]2CN(C3CCC3)CCN12 | Histidine--tRNA ligase (Leishmania infantum) (UniProt A4I591) | 22.2
Cc1n[nH]c(SCC(=O)N2C[C@H]3CC[C@@H]2CN(c2ncccn2)C3)n1 | Histidine--tRNA ligase (Leishmania infantum) (UniProt A4I591) | 9.38
O=C(Nc1cccc2ccccc12)N1CCC(N2CCSCC2)CC1 | Histidine--tRNA ligase (Leishmania infantum) (UniProt A4I591) | 18.3
Cc1ccc(CN2CC[C@H]3C(=O)N(Cc4cccnc4)CCO[C@H]3C2)o1 | Histidine--tRNA ligase (Leishmania infantum) (UniProt A4I591) | 5.88
O=C(CN1C[C@H]2C[C@H](OCc3ccccc3)C[C@H]2C1)N1CCOCC1 | Histidine--tRNA ligase (Leishmania infantum) (UniProt A4I591) | 15.7
CN(C)C(=O)[C@@H]1CCO[C@@H]2CCN(c3ncccn3)C[C@@H]21 | Histidine--tRNA ligase (Leishmania infantum) (UniProt A4I591) | 0
CN1C(=O)[C@H]2CC[C@@H]1CN(C(=O)Nc1cccc3ccccc13)C2 | Histidine--tRNA ligase (Leishmania infantum) (UniProt A4I591) | 68.6
O=C(NC[C@H]1CCCC[C@H]1O)c1ccc2nc(-c3ccco3)[nH]c2c1 | Histidine--tRNA ligase (Leishmania infantum) (UniProt A4I591) | 63.4
